test: blockers of DNA damage checkpoint Chk1 activation – imaging, HeLa, hydroxyurea, phospho-Chk1 nuclear intensity, primary screen (AID 1187); conditions: hydroxyurea-induced phospho-Chk1 immunofluorescence imaging, higher = more signal; note: test concentration not given here
readout-name: z-score
Reply briefly: the number, and no unit.

Q: Annotate the molecule COCCn1c(C(=O)N2CCCC2)cc2c1C[C@H]1CN(C(=O)c3ccccc3)[C@@](Cc3ccc(OC)cc3)(C(=O)OC)[C@@H]21 with its measured z-score.
Ans: -0.634

Q: Annotate the molecule O=C1OCCC=C[C@H]2OC34C=CCN(c5ccc6ccccc6c5)C(=O)[C@H]3N(CCCCCCO)C(=O)[C@@H]4C12 (some centres not stated) with its measured z-score.
Ans: 0.399

Q: Annotate the molecule COc1ccc([Si](C)(C)[C@@H]2[C@@H](CCn3cc([C@H](O)c4ccccc4)nn3)O[C@]3(C(=O)N(C)c4ccccc43)[C@H]2C)cc1 with its measured z-score.
Ans: -0.858

Q: Annotate the molecule CN1C(=O)C2C(C1=O)C1C=C(c3ccc(CO)cc3)C2C(C2CC2)N1Cc1cc2c(cc1Br)OCO2 (configuration not stated) with its measured z-score.
Ans: -0.327

Q: Annotate the molecule [N-]=[N+]=NCc1ccccc1C[C@]1(C(=O)NCC(O)CO)COC(c2ccc(OCCCO)cc2)=N1 (some centres not stated) with its measured z-score.
Ans: -0.341

Q: Annotate the molecule CCCNC(=O)[C@@]1(C)c2ccccc2C(=O)N(Cc2cc(C(F)(F)F)cc(C(F)(F)F)c2)[C@H]1c1ccc(CO)cc1 with its measured z-score.
Ans: -0.0865

Q: Annotate the molecule COC(=O)[C@@]1(Cc2ccc(F)cc2)[C@H]2c3cc(C(=O)N(C)C)n(CCc4c[nH]c5ccc(OC)cc45)c3C[C@H]2CN1C(=O)c1ccccc1 with its measured z-score.
Ans: 0.0892

* * *

tested on: glycogen synthase kinase-3 (GSK3A per assay name; protocol says GSK3B); test: compounds binding glycogen synthase kinase-3 – biochemical, small-molecule microarray, 635 nm fluorescence, GSK3A, primary screen (AID 1103); conditions: fluorescence 635 nm, higher = more signal; note: the record names both GSK3A and GSK3B
readout-name: composite z-score

Q: Annotate the compound C=CC[C@]1(C(=O)NCCN2CCOCC2)N=C(c2ccc(OCCCO)cc2)O[C@H]1c1ccccc1N=[N+]=[N-] with its measured composite z-score.
Ans: 0.287

Q: Annotate the compound C[N+](C)(C)CCCC[C@@H]1NC(=O)[C@@H]2C[C@H](C(=O)NCCCCCCNC(=O)CS)[C@H](c3cccc(OCCO)c3)N2C1=O with its measured composite z-score.
Ans: -0.755

Q: Annotate the compound Cc1ccc(N2C(=O)c3ccccc3[C@@H](C(=O)NC(C)C)[C@@H]2c2ccc(CO)cc2)nc1 with its measured composite z-score.
Ans: -0.0399

Q: Annotate the compound COCCCNC(=O)[C@@]1(Cc2ccccc2I)c2ccccc2C(=O)N(Cc2ccccc2)[C@H]1c1ccc(CO)cc1 with its measured composite z-score.
Ans: -1.43

Q: Annotate the compound C=C[C@H](C)[C@H](OC(=O)Nc1ccc(OC)cc1)c1ccc(O)c2ccccc12 with its measured composite z-score.
Ans: -0.667

Q: Annotate the compound CCCCCCC#C[Si](O[C@H](c1ccccc1)c1cn([C@H](C)c2ccccc2)nn1)(C(C)C)C(C)C with its measured composite z-score.
Ans: 0.565

Q: Annotate the compound CCN(CC)c1ccc(N2CC=CC34O[C@@H]5C=CCCOC(=O)C5[C@H]3C(=O)N(CCCO)[C@@H]4C2=O)cc1 (some centres undefined) with its measured composite z-score.
Ans: -0.0608

Q: Annotate the compound C#C[C@H]1Oc2ccccc2S(=O)(=O)N2CCC[C@@H]12 with its measured composite z-score.
Ans: 0.0695

Q: Annotate the compound C=CCOC(=O)[C@H]1[C@@H]2C(=O)O[C@@H](c3ccccc3)[C@@H](c3ccccc3)N2[C@@H](c2ccc(OCCOC(=O)[C@@H]3C[C@@H]4C(=O)NCC(=O)N4[C@@H]3c3ccc(O)cc3)cc2)[C@]12C(=O)Nc1ccc(I)cc12 with its measured composite z-score.
Ans: 1.3

Q: Annotate the compound O=C1C[C@@](C(=O)O)(c2ccc([N+](=O)[O-])cc2)[C@@H](c2ccc(CO)cc2I)N1CC12CC3CC(CC(C3)C1)C2 with its measured composite z-score.
Ans: 0.48

Q: Annotate the compound CC(=O)NCCCC[C@@H]1NC(=O)[C@@H]2C[C@H](C(=O)NCc3ccc(F)cc3)[C@H](c3ccc(O)cc3)N2C1=O with its measured composite z-score.
Ans: 0.767

Q: Annotate the compound CN1C(=O)C2C=CC(C(O)C(C)(C)C)N(Nc3ccccc3)C2C1=O (centres undefined) with its measured composite z-score.
Ans: -0.0258

Q: Annotate the compound [N-]=[N+]=Nc1ccccc1C[C@]1(C(=O)N2CCCCC2)N=C(c2ccc(OCCCO)cc2)O[C@H]1c1ccccc1N=[N+]=[N-] with its measured composite z-score.
Ans: 0.743

Q: Annotate the compound O=C(N1CCCCC1)[C@]1(CCS(=O)(=O)c2ccccc2)N=C(c2ccc(OCCCO)cc2)O[C@@H]1c1ccccc1 with its measured composite z-score.
Ans: 1.31

Q: Annotate the compound C=C(C)[C@@H]1CC=C(C(O)C2C=CC3C(=O)N(Cc4ccccc4)C(=O)C3N2n2cnnc2)CC1 (some centres undefined) with its measured composite z-score.
Ans: -0.724

Q: Annotate the compound COc1ccc(CCNC(=O)[C@@]2(C)c3ccccc3C(=O)N(Cc3ccccc3)[C@H]2c2ccc(CO)cc2)cc1 with its measured composite z-score.
Ans: 0.707

Q: Annotate the compound Cc1ccc(N2C(=O)c3ccccc3[C@@H](C(=O)NCC(C)C)[C@@H]2c2ccc(CO)cc2)nc1 with its measured composite z-score.
Ans: -0.813

Q: Annotate the compound CCOC(=O)N1C(c2ccc(OCCCO)cc2)=NC(C(=O)OC)N1C(=O)OCC (centres undefined) with its measured composite z-score.
Ans: 1.28

Q: Annotate the compound COc1ccc([Si](C)(C)[C@H]2[C@H](CC(=O)N3CCC[C@H]3CO)O[C@@]3(C(=O)N(Cc4cccc(N5CCC5=O)c4)c4ccccc43)[C@@H]2C)cc1 with its measured composite z-score.
Ans: 1.27

Q: Annotate the compound CCCC[C@H]1OB(O)C[C@H]2C1=C(COc1ccccc1)C[C@H]1C(=O)N(Cc3ccccc3)C(=O)[C@H]12 with its measured composite z-score.
Ans: 0.103

Q: Annotate the compound CN(C)CCCC[C@@H]1NC(=O)[C@@H]2C[C@H](C(=O)NCCCCCCN)[C@H](c3ccc(O)cc3)N2C1=O with its measured composite z-score.
Ans: 1

Q: Annotate the compound O=C1C2C=CC(C(O)CCc3ccccc3)N(Nc3ccccc3)C2C(=O)N1c1ccccc1 (centres undefined) with its measured composite z-score.
Ans: 1.26

Q: Annotate the compound COc1ccc(C#Cc2ccc3c(c2)[C@]2(C(=O)N3)[C@H](C(=O)N3CCc4cc(OC)c(OC)cc4C3)[C@H]3C(=O)O[C@H](c4ccccc4)[C@H](c4ccccc4)N3[C@@H]2c2ccc(OCCO)cc2)cc1 with its measured composite z-score.
Ans: 1.27

Q: Annotate the compound COc1ccc(C#Cc2ccc3c(c2)[C@]2(C(=O)N3)[C@H](c3ccc(OCCO)cc3)N3[C@H](c4ccccc4)[C@H](c4ccccc4)OC(=O)[C@H]3[C@@H]2C(=O)Nc2nc3ccccc3s2)cc1 with its measured composite z-score.
Ans: 1.29

Q: Annotate the compound C/C=C/[C@H](CCn1cc([C@H](O)c2ccccc2)nn1)[Si](C)(C)c1ccc(OC)cc1 with its measured composite z-score.
Ans: -0.855

Q: Annotate the compound O=C1NC(=O)C2C1C=CC(C(O)c1cccs1)N2Nc1ccccn1 (centres undefined) with its measured composite z-score.
Ans: 0.182

Q: Annotate the compound COc1ccc([Si](C)(C)[C@@H]2[C@@H](CCO)O[C@]3(C(=O)N(Cc4cccc(N(C=O)c5ccccc5)c4)c4ccccc43)[C@H]2C)cc1 with its measured composite z-score.
Ans: 0.364

Q: Annotate the compound C=CCC(OC(C)=O)[C@@H]1[C@@H](N(Cc2ccc(-c3ccccc3)cc2)C(=O)c2ccc(C)cc2)c2cc(OCCCO)ccc2N1C(=O)Cc1ccc(OC)cc1 (some centres undefined) with its measured composite z-score.
Ans: -0.159

Q: Annotate the compound CC(=O)NCCCC[C@@H]1NC(=O)[C@@H]2C[C@H](C(=O)NCCCCCC[N+](C)(C)C)[C@H](c3cccc(OCCO)c3)N2C1=O with its measured composite z-score.
Ans: 1.27
